Data provenance: PubChem BioAssay (NCI)

- Test system: SN12C renal
- ASSAY NAME: NCI-60 one-dose screen, 48 h (100 = growth as untreated, 0 = no growth, -100 = all killed)
- RUN CONDITIONS: 10 µM unless noted
The panel holds about 83,000 compounds, 20% with a hit somewhere; the sample as a whole holds those more often.
Assignment: determine reported growth for the given compounds.
Express it in %; write the number only.

Recorded result, C=C(C)[C@@H]1CCC[C@]2(C(=O)O)CC[C@]3(C)[C@@H](CC[C@@H]4[C@@]5(C)C/C(=C/c6ccncc6)C(=O)C(C)(C)[C@@H]5CC[C@]43C)[C@@H]12 , growth: 25.7

Recorded result, Cc1ccc(-c2csc(N(C(=O)N3CCN(c4cc5c(cc4F)c(=O)c(C(=O)O)cn5C4CC4)CC3)c3ccccc3)n2)cc1 , growth: 9.07

Recorded result, COc1cc(NC(=O)c2cncnc2Nc2ccc3c(ccn3Cc3ccccn3)c2)cc(OC)c1 , growth: 56.2

Recorded result, CN1CCN(c2ccc(NC(=O)c3cncnc3Nc3ccc(OCc4cccc(F)c4)c(Cl)c3)cc2)CC1 , growth: 63.9

Recorded result, CS(=O)(=O)c1ccc(NC(=O)c2ccccc2)nc1 , growth: 99.1

Recorded result, CCCCNc1cc(-c2cn[nH]c2-c2cc(C)cc(OC)c2)nc(-c2cccnc2)n1 , growth: 95.3

Recorded result, Cc1c2ccncc2c(C)c2c1c1cc(CO)ccc1n2C , growth: 6.64
